Target: T1, recombinant human IL-23 (human, UniProt Q9NPF7 20-189; P29460 23-328)
T1 construct: also called hIL-23
T1 sequence 1: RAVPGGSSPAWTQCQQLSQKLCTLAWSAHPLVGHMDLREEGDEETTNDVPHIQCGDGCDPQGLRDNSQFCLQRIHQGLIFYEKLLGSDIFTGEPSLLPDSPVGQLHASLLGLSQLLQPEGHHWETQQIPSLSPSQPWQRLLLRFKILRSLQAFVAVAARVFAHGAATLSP
T1 sequence 2: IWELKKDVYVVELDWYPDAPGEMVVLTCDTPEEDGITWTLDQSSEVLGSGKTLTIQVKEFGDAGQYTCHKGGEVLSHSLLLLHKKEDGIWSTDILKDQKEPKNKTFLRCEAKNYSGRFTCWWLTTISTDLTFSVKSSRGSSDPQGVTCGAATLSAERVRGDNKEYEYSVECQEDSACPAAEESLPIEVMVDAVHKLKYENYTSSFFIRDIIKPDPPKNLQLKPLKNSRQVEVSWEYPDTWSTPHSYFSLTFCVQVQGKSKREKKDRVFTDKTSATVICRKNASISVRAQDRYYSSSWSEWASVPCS
Test: SPR (Biacore T100), purified antibody captured on anti-human IgG, IL-23 analyte, 1:1 model
// pKd lookup, one value per entry
pKd field: float, defined as -log10 of concentration (mol/L).

Answered examples (2):
- A7M3 (antibody, human IgG1, kappa, V domains shown, Full length chains) VH: QVQLVQSGAEVKKPGSSVKVSCKASGYTFTSYGITWVRQAPGQGLEWMGEDYPRSGNTYYNEKFKGRVTITADKSTSTAYMELSSLRSEDTAVYYCARSEFISTVVAPYYYALDYWGQGTLVTVSS VL: DIVMTQSPDSLAVSLGERATINCKASKKVTIFGSTSALHWYQQKPGQPPKLIYNGAKLESGVPDRFSGSGSGTDFTLTISSLQAEDVAVYYCLQNKEVPYTFGGGTKVEIKR: 9.84
- A3M0 (antibody, human IgG1, kappa, V domains shown, Full length chains; also called humanized mAb A3M0) VH: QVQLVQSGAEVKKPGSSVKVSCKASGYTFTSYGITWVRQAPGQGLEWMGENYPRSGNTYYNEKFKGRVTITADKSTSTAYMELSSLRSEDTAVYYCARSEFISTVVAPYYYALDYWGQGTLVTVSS VL: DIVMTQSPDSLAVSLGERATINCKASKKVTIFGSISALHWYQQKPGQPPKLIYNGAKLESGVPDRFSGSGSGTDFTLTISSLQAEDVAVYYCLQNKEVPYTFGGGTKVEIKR: 9.71

Ask | What pKd value was documented for this binder, A8M3 (antibody, V domains shown) VH: QVQLVQSGAEVKKPGSSVKVSCKASGYTFTSYGITWVRQAPGQGLEWMGEDYPRSGNTYYNEKFKGRVTITADKSTSTAYMELSSLRSEDTAVYYCARAEFISTVVAPYYYALDYWGQGTLVTVSS VL: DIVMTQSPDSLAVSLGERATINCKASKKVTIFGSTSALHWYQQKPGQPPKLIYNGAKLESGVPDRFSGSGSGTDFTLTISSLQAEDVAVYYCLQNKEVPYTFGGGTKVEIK ?
Reply | 10.10
